src = patent US6525001B1

System: giant foxtail (Setaria faberii)
assay-text: Test B pre-/postemergence
Assay type: in vivo
Parameters: key: 0 is no effect; 10 is complete control
experimental-conditions: Rate 62 g/ha, Preemergence
assay-endpoint: Giant foxtail plant response rating

{"sample-smiles": "Cc1cnc(-n2ccc(C(F)(F)F)n2)nc1Cc1cccc(OC(F)(F)F)c1", "Giant foxtail plant response rating": 10}
{"sample-smiles": "Cc1cnc(-c2ccc(F)c(Cl)c2)nc1Cc1cccc(C#N)c1", "Giant foxtail plant response rating": 0}
{"sample-smiles": "Cc1cnc(-c2ccc(OC(F)(F)F)cc2)nc1Cc1cccc(C(F)(F)F)c1", "Giant foxtail plant response rating": 0}
{"sample-smiles": "Cc1cnc(-c2ccc(Cl)cc2)nc1Cn1ccc(C(F)(F)F)n1", "Giant foxtail plant response rating": 2}
{"sample-smiles": "CCc1cnc(-n2ccc(C(F)(F)F)n2)nc1Cc1cccc(C(F)(F)F)c1", "Giant foxtail plant response rating": 9}

[Q] What is its Giant foxtail plant response rating for giant foxtail (Setaria faberii)? Entry: `Cc1cnc(-c2cccc(C(F)(F)F)c2)nc1Cc1cccc(C(F)(F)F)c1`
[A] 0

[Q] So what Giant foxtail plant response rating did `Cc1cnc(-c2ccc(Cl)c(Cl)c2)nc1Cc1cccc(C(F)(F)F)c1` get with giant foxtail (Setaria faberii)?
[A] 2

[Q] Give the reported Giant foxtail plant response rating for `Cc1cnc(-c2ccc(Cl)c(Cl)c2)nc1Cc1cccc(C#N)c1` (system: giant foxtail (Setaria faberii)).
[A] 0

###

System: blackgrass (Alopecurus myosuroides)
assay-text: Test B pre-/postemergence
Type: in vivo
experimental-conditions: Rate 62 g/ha, Postemergence
assay-endpoint: Plant response rating, Blackgrass
Lab note: jot down the number only; don't add units.

[Q] Report Plant response rating, Blackgrass for Cc1cnc(-c2ccc(C(F)(F)F)cc2)nc1C(Cl)c1cccc(C(F)(F)F)c1 (racemic) [Compound 21] please.
[A] 3

[Q] Given the molecule Cc1cnc(-c2ccc(Cl)cc2)nc1Cc1cccc(C#N)c1 [Compound 33] , what is its reported Plant response rating, Blackgrass?
[A] 0

[Q] Field request: Plant response rating, Blackgrass | item: Cc1cnc(-c2ccc(C(F)(F)F)cc2)nc1Cn1cc(I)cn1 [Compound 12]
[A] 2

[Q] If you can, please state the reported Plant response rating, Blackgrass value of Cc1cnc(-c2ccc(C(F)(F)F)cc2)nc1Cn1ccc(C(F)(F)F)n1 [compound 9] .
[A] 3

[Q] What value of Plant response rating, Blackgrass has been recorded for this entry: CCc1cnc(-n2cnc(C(F)(F)F)n2)nc1Cc1cccc(OC(F)(F)F)c1 [Compound 50]
[A] 2

[Q] // returns reported Plant response rating, Blackgrass for input CCc1cnc(-n2ccc(C(F)(F)F)n2)nc1Cc1cccc(OC(F)(F)F)c1 [Compound 47]
[A] 5

###

Test system: guineagrass (Panicum maximum)
assay-text: Test E pre-/postemergence/post directed
Format: in vivo
Set-up: key: 0 is no effect; 100 is complete control
experimental-conditions: PREEMERGENCE, Rate 125 g/ha
assay-endpoint: Plant response rating, Guineagrass
Note: the reply should be a number with no unit written.

Example entries begin here.
{"compound": "CCc1cnc(-n2ccc(C(F)(F)F)n2)nc1Cc1cccc(C(F)(F)F)c1 [Compound 46]", "system-under-test": "guineagrass (Panicum maximum)", "obs-value": 100}
{"compound": "Cc1cnc(-c2ccc(C(F)(F)F)cc2)nc1Cc1cccc(C(F)(F)F)c1 [Example 1]", "system-under-test": "guineagrass (Panicum maximum)", "obs-value": 100}
{"compound": "Cc1cnc(-n2cnc(C(F)(F)F)c2)nc1Cc1cccc(C(F)(F)F)c1 [Compound 44]", "system-under-test": "guineagrass (Panicum maximum)", "obs-value": 100}
{"compound": "Cc1cnc(-n2ccc(C(F)(F)F)n2)nc1Cn1ccc(C(F)(F)F)n1 [Compound 52]", "system-under-test": "guineagrass (Panicum maximum)", "obs-value": 100}

Continue with the next compound.
[Q] Returns the measured Plant response rating, Guineagrass for the input compound. Input: COc1cnc(-c2ccc(C(F)(F)F)cc2)nc1Cc1cccc(C(F)(F)F)c1 [Compound 23]
[A] 98
